Cited source: patent US8133847B2

# System: Amaranthus retroflexus (AMARE)
# METHOD NOTES: Example B2 herbicidal action, post-emergence, pots in glasshouse
# Type: in vivo
# CONDITIONS USED: Application post-emergence, evaluated after 13 days (100=total damage to plant; 0=no damage to plant)
Rule: damage to plant, Amaranthus retroflexus (AMARE) under 9 gives criterion not met, otherwise criterion met.

>>> print(df.to_string())
                                    molecule                    assay_system   class_assignment
 0  CCn1c(=O)c(-c2c(Cl)cc(C(F)(F)F)cc2Cl)c(OC(=O)C(C)(C)C)c2nccnc21 [Compound C129]  Amaranthus retroflexus (AMARE)      criterion met
 1  O=c1[nH]c2nccnc2c(O)c1-c1ccccc1Br [Compound A24]  Amaranthus retroflexus (AMARE)      criterion met
 2  CC(C)(C)C(=O)Oc1c(-c2c(Cl)cc(OC(F)(F)F)cc2Cl)c(=O)[nH]c2nccnc12 [Compound B42]  Amaranthus retroflexus (AMARE)  criterion not met
 3  Cn1c(=O)c(-c2c(F)ccc(Cl)c2Cl)c(OC(=O)C(C)(C)C)c2nccnc21 [Compound C163]  Amaranthus retroflexus (AMARE)  criterion not met
 4  CC(C)(C)C(=O)Oc1c(-c2c(F)ccc(F)c2Cl)c(=O)n(CC2CCC2)c2nccnc12 [Compound C131]  Amaranthus retroflexus (AMARE)  criterion not met
 5  Cn1c(=O)c(-c2ccccc2OC(F)F)c(OC(=O)C(C)(C)C)c2nccnc21 [Compound C168]  Amaranthus retroflexus (AMARE)      criterion met
 6  CC(C)(C)C(=O)Oc1c(-c2c(F)ccc(Br)c2Cl)c(=O)[nH]c2nccnc12 [Compound B49]  Amaranthus retroflexus (AMARE)      criterion met
 7  CC(C)(C)C(=O)Oc1c(-c2cc(F)ccc2Cl)c(=O)[nH]c2nccnc12 [Compound B46]  Amaranthus retroflexus (AMARE)      criterion met
 8  CCn1c(=O)c(-c2cc(OC(F)(F)F)ccc2OC)c(OC(=O)C(C)C)c2nccnc21 [Compound C160]  Amaranthus retroflexus (AMARE)      criterion met
 9  CC(C)C(=O)Oc1c(-c2cc(F)ccc2Cl)c(=O)[nH]c2nccnc12 [Compound B45]  Amaranthus retroflexus (AMARE)  criterion not met
10  CCn1c(=O)c(-c2c(F)ccc(Br)c2Cl)c(OC(=O)C(C)C)c2nccnc21 [Compound C154]  Amaranthus retroflexus (AMARE)      criterion met
11  CC(C)C(=O)Oc1c(-c2c(F)ccc(Br)c2Cl)c(=O)n(C)c2nccnc12 [Compound C144]  Amaranthus retroflexus (AMARE)      criterion met
12  CCn1c(=O)c(-c2cc(F)ccc2Cl)c(OC(=O)C(C)C)c2nccnc21 [Compound C150]  Amaranthus retroflexus (AMARE)      criterion met
